target: ScLsb2; experiment: SPOT peptide array binding signal intensity (averaged, normalized) (arbitrary units (background-subtracted, floor 0; scale differs between SH3 domains)); higher = stronger binding of the SH3 domain to the peptide
I'd be grateful if you could share measured SPOT peptide array binding signal intensity for these entries.
One number for each entry.

binder=RKRAPTPPAPSRSEK measured_number=6
binder=RLPAPPPPPRRGPAP measured_number=5.5
binder=AERNYAPRLPRRETS measured_number=158
binder=NLKKRPPTAPQRKIS measured_number=3.5

Lookup result for `FYNRTAFQLPGDARV` ; measured SPOT peptide array binding signal intensity: 843
